All values here come from patent US20260083865A1.

biological target: PSMA-expressing C4-2 cells (Homo sapiens, UniProt Q04609); construct: PSMA-expressing C4-2 cells (ATCC, Cat. No. CRL-3314) were cultured in RPMI-1640; host or cells: C4-2 cells; assay: FACS binding assay (competition with 50 nM PSM-0183); settings: pIC50 category of FACS binding, C4-2 cells; read-out: pIC50 [C4-2] CAT (converted)
Sequence (Q04609 whole entry): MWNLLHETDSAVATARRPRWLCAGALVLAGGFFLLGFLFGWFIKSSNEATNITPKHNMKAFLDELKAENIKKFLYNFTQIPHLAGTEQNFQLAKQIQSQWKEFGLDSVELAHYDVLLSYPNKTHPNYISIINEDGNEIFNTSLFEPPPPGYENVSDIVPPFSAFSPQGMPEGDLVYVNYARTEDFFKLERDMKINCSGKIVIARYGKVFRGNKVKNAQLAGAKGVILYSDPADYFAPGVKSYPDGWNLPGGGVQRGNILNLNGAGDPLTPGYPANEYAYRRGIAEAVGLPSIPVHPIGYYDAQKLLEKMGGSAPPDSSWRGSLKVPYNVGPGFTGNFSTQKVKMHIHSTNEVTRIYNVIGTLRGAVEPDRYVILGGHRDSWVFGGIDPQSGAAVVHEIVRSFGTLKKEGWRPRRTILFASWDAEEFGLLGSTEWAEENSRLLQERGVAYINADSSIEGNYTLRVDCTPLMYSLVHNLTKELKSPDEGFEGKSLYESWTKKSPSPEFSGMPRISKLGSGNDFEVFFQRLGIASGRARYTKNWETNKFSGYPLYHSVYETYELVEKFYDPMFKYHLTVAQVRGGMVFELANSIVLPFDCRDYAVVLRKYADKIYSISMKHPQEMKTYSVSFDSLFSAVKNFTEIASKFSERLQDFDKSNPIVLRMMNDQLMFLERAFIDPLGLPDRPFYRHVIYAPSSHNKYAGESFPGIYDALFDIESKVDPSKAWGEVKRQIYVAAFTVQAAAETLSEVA
Numbered stars: 1 amine (or outer) side, 2 acyl side, 3 side chain; on linkers, the order of the positions; unused ones are H or OH. Bridge positions count the residues as written; N and C are the ends. Square brackets hold non-standard residues; d marks the D form. Side chains are listed from the residue outwards. Peptide text beside a SMILES is read from it. * marks the point of attachment. X3 = O=C(O)CN1CCN(CC(=O)O)CCN(CC(=O)NCCCOCCOCCOCCCN*)CCN(CC(=O)O)CC1; DOTA = O=C(O)CN1CCN(CC(=O)O)CCN(CC(=O)*)CCN(CC(=O)O)CC1; Tyr(3-I) = N[C@@H](Cc1ccc(O)c(I)c1)C(=O)O; Phe(3-CN) = N#Cc1cccc(C[C@H](N)C(=O)O)c1; Phe(4-Cl) = N[C@@H](Cc1ccc(Cl)cc1)C(=O)O; Arg(Me) = CNC(=N)NCCC[C@H](N)C(=O)O; αMeF = C[C@](N)(Cc1ccccc1)C(=O)O; X1 = O=C(CC1CCN([*:1])CC1)[*:2]; Cit = NC(=O)NCCC[C@H](N)C(=O)O; Lys(Me) = CNCCCC[C@H](N)C(=O)O; Suc = O=C(CCC(=O)[*:2])[*:1]; Tle = CC(C)(C)[C@H](N)C(=O)O; AEEA = NCCOCCOCC(=O)O; Aib = CC(C)(N)C(=O)O; Guanidino = N=C(N)N*
Parameter: IC50

Input: # get_value(readout='IC50', item= CCCC[C@H](NC(=O)[C@@H]1CSSC[C@H](NC(=O)[C@H](Cc2ccccc2)NC(=O)[C@H](C)NC(=O)[C@@H](NC(C)=O)[C@@H](C)O)C(=O)N[C@@H](CCCCN)C(=O)N[C@@H](CCCNC(=N)N)C(=O)N[C@@H](C)C(=O)N[C@@H](CC(N)=O)C(=O)N1)C(=O)N[C@H](C(=O)N[C@H](CC(=O)O)C(N)=O)[C@@H](C)O (single isomer, unassigned) [PSM-0436] )
Output: > 3.16 µM

Input: # get_value(readout='IC50', item= CC(=O)N[C@H](C(=O)N[C@@H](C)C(=O)N[C@@](C)(Cc1ccccc1)C(=O)N[C@H]1CSSC[C@@H](C(=O)N[C@H](C(=O)N[C@H](C(N)=O)[C@@H](C)O)C(C)(C)C)NC(=O)[C@H](CC(N)=O)NC(=O)C(C)(C)NC(=O)[C@H](CCCNC(=N)N)NC(=O)[C@H](CCCCN)NC1=O)[C@@H](C)O [PSM-0414] (Ac-TA[αMeF]CKR[Aib]NC[Tle]T-NH2; disulfide 4-9) )
Output: > 3.16 µM

Input: # get_value(readout='IC50', item= CNCCCC[C@@H]1NC(=O)[C@@H](NC(=O)[C@H](Cc2cccc(C#N)c2)NC(=O)C(C)(C)NC(=O)[C@@H](NC(=O)CC2CCN(C(=O)CN3CCN(CC(=O)O)CCN(CC(=O)O)CCN(CC(=O)O)CC3)CC2)[C@@H](C)O)CSSC[C@@H](C(=O)N[C@H](C(N)=O)C(C)(C)C)NC(=O)[C@H](CC(N)=O)NC(=O)C(C)(C)NC(=O)[C@H](CCCNC(=N)NC)NC1=O [PSM-0459] ({DOTA}-[X1]T[Aib][Phe(3-CN)]C[Lys(Me)][Arg(Me)][Aib]NC[Tle]-NH2; disulfide 5-10) )
Output: 0.2 to 1.26 µM

Input: # get_value(readout='IC50', item= CC(=O)N[C@H](C(=O)NC(C)(C)C(=O)N[C@@H](Cc1ccc(Cl)cc1)C(=O)N[C@H]1CSSC[C@@H](C(=O)N[C@H](C(=O)N[C@H](C(N)=O)[C@@H](C)O)C(C)(C)C)NC(=O)[C@H](CC(N)=O)NC(=O)[C@H](CCCCNC(=O)COCCOCCNC(=O)CN2CCN(CC(=O)O)CCN(CC(=O)O)CCN(CC(=O)O)CC2)NC(=O)[C@H](CCCNC(=N)N)NC(=O)[C@H](CCCCN)NC1=O)[C@@H](C)O [PSM-0370] (Ac-T[Aib][Phe(4-Cl)]CKRK([AEEA-DOTA])NC[Tle]T-NH2; disulfide 4-9) )
Output: < 0.2 µM

Input: # get_value(readout='IC50', item= C[C@@H](O)[C@H](NC(=O)CCC(=O)NCCCOCCOCCOCCCNC(=O)CN1CCN(CC(=O)O)CCN(CC(=O)O)CCN(CC(=O)O)CC1)C(=O)NC(C)(C)C(=O)N[C@@H](Cc1ccccc1)C(=O)N[C@H]1CSSC[C@@H](C(=O)N[C@H](C(=O)N[C@H](C(=O)N[C@@H](CC(=O)O)C(N)=O)[C@@H](C)O)C(C)(C)C)NC(=O)[C@H](CC(N)=O)NC(=O)C(C)(C)NC(=O)[C@H](CCCNC(=N)N)NC(=O)[C@H](CCCCN)NC1=O [PSM-0398] ({X3-Suc}-T[Aib]FCKR[Aib]NC[Tle]TD-NH2; disulfide 4-9) )
Output: < 0.2 µM

Input: # get_value(readout='IC50', item= C[C@@H](O)[C@H](NC(=O)[C@@H](NC(=O)[C@@H]1CSSC[C@H](NC(=O)[C@H](Cc2ccc(Cl)cc2)NC(=O)C(C)(C)NC(=O)[C@@H](NC(=O)CC2CCN(C(=O)CN3CCN(CC(=O)O)CCN(CC(=O)O)CCN(CC(=O)O)CC3)CC2)[C@@H](C)O)C(=O)N[C@@H](CCCCN)C(=O)N[C@@H](CCCNC(=N)N)C(=O)NC(C)(C)C(=O)N[C@@H](CC(N)=O)C(=O)N1)C(C)(C)C)C(N)=O [PSM-0445] ({DOTA}-[X1]T[Aib][Phe(4-Cl)]CKR[Aib]NC[Tle]T-NH2; disulfide 5-10) )
Output: < 0.2 µM

Input: # get_value(readout='IC50', item= CC(=O)N[C@H](C(=O)NC(C)(C)C(=O)N[C@@H](Cc1ccc(Cl)cc1)C(=O)N[C@H]1CSSC[C@@H](C(=O)N[C@H](C(=O)N[C@H](C(N)=O)[C@@H](C)O)C(C)(C)C)NC(=O)[C@H](CCC(=O)O)NC(=O)C(C)(C)NC(=O)[C@H](CCCNC(N)=O)NC(=O)[C@H](CCCCN)NC1=O)[C@@H](C)O [PSM-0496] (Ac-T[Aib][Phe(4-Cl)]CK[Cit][Aib]EC[Tle]T-NH2; disulfide 4-9) )
Output: < 0.2 µM

Input: # get_value(readout='IC50', item= CNCCCC[C@@H]1NC(=O)[C@@H](NC(=O)[C@H](Cc2ccc(O)c(I)c2)NC(=O)C(C)(C)NC(=O)[C@@H](NC(C)=O)[C@@H](C)O)CSSC[C@@H](C(=O)N[C@H](C(=O)N[C@H](C(N)=O)[C@@H](C)O)C(C)(C)C)NC(=O)[C@H](CC(N)=O)NC(=O)C(C)(C)NC(=O)[C@H](CCCNC(=N)NC)NC1=O [PSM-0387] (Ac-T[Aib][Tyr(3-I)]C[Lys(Me)][Arg(Me)][Aib]NC[Tle]T-NH2; disulfide 4-9) )
Output: > 3.16 µM

Input: # get_value(readout='IC50', item= C[C@@H](O)[C@H](NC(=O)[C@@H](NC(=O)[C@@H]1CSSC[C@H](NC(=O)[C@H](Cc2ccc(Cl)cc2)NC(=O)C(C)(C)NC(=O)CC2CCN(C(=O)CN3CCN(CC(=O)O)CCN(CC(=O)O)CCN(CC(=O)O)CC3)CC2)C(=O)N[C@@H](CCCCN)C(=O)N[C@@H](CCC(=O)NC(=N)N)C(=O)NC(C)(C)C(=O)N[C@@H](CC(N)=O)C(=O)N1)C(C)(C)C)C(N)=O [PSM-0489] ({DOTA}-[X1][Aib][Phe(4-Cl)]CKE(Guanidino)[Aib]NC[Tle]T-NH2; disulfide 4-9) )
Output: < 0.2 µM

====

molecular target: Fc-fusion protein of human PSMA (hPSMA-Fc) (Homo sapiens); construct: purchased Acro Biosystems PSA-H5264; test: Surface plasmon resonance assay (Biacore T200, single cycle kinetic); type: binding; conditions: SPR, hPSMA-Fc, single cycle kinetic, 25° C.; category; read-out: pKD CAT (converted)
Sequence (Q04609 44-750 limits assumed): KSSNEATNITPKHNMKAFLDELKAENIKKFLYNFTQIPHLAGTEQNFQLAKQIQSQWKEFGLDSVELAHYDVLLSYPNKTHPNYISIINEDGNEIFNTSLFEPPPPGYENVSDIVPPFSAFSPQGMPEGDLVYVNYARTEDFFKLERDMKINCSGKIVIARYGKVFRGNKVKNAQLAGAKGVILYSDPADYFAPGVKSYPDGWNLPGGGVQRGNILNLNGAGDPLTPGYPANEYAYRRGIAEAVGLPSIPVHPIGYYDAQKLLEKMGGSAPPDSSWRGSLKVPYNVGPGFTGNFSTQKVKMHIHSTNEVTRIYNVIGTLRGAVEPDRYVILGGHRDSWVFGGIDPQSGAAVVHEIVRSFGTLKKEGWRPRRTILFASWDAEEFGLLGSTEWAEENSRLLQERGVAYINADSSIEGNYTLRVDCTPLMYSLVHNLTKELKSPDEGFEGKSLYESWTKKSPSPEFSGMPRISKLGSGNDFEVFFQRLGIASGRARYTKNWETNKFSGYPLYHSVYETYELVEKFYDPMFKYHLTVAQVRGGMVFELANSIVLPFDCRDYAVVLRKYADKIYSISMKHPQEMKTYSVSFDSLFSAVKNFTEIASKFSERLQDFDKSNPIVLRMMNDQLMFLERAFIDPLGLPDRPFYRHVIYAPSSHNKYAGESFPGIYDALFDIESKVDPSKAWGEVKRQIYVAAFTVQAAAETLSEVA
Bridge positions count the residues as written; N and C are the ends. Square brackets hold non-standard residues; d marks the D form. Peptide text beside a SMILES is read from it. * marks the point of attachment. X7 = O=C(O)CN1CCN(CC(=O)O)CCN(CC(=O)NC2CCN(CC(=O)*)CC2)CCN(CC(=O)O)CC1; Phe(4-Cl) = N[C@@H](Cc1ccc(Cl)cc1)C(=O)O; Propanoyl(3-SO2NH2) = NS(=O)(=O)CCC(=O)*; Tle = CC(C)(C)[C@H](N)C(=O)O; Aib = CC(C)(N)C(=O)O
Parameter: Kd

{"Molecule": "CC(=O)N[C@H](C(=O)NC(C)(C)C(=O)N[C@@H](Cc1ccccc1)C(=O)N[C@H]1CSSC[C@@H](C(=O)N[C@H](C(=O)N[C@H](C(=O)N[C@@H](CC(=O)O)C(N)=O)[C@@H](C)O)C(C)(C)C)NC(=O)[C@H](CC(N)=O)NC(=O)C(C)(C)NC(=O)[C@H](CCC(=O)O)NC(=O)[C@H](CCCCN)NC1=O)[C@@H](C)O [PSM-0253] (Ac-T[Aib]FCKE[Aib]NC[Tle]TD-NH2; disulfide 4-9)", "Kd": "126 to 501 nM"}

Let's switch to this molecule now.
Input: # get_value(readout='Kd', item= C[C@@H](O)[C@H](NC(=O)[C@@H](NC(=O)[C@@H]1CSSC[C@H](NC(=O)[C@H](Cc2ccc(Cl)cc2)NC(=O)C(C)(C)NC(=O)CCS(N)(=O)=O)C(=O)N[C@@H](CCCCN)C(=O)N[C@@H](CCCNC(=N)N)C(=O)N[C@@H](CCCCNC(=O)CN2CCC(NC(=O)CN3CCN(CC(=O)O)CCN(CC(=O)O)CCN(CC(=O)O)CC3)CC2)C(=O)N[C@@H](CC(N)=O)C(=O)N1)C(C)(C)C)C(N)=O [PSM-0188] ({Propanoyl(3-SO2NH2)}-[Aib][Phe(4-Cl)]CKRK(X7)NC[Tle]T-NH2; disulfide 3-8) )
Output: < 12.6 nM
